apparent KD of MS2 coat protein by entry:
system: MS2 coat protein; test: apparent KD of MS2 coat protein; designed switch direction (-1 OFF switch, 1 ON switch): -1; higher = weaker reporter binding; conditions: input ligand: none
Number in nM, nothing else.

Use these answered entries as a reference point.
# sequence code, apparent KD of MS2 coat protein (nM)
rows = [
    ("GCACGGAGUGUAGGAUAUCUGUGCGAUUAGCUCAGAGAAGGACACAUGAGGAUCACCCAUGUGUUCCUCGGAAACGAACCGUGC [Eli exng1 - 051] (Eterna round: R96, puzzle: Exclusion NG 1)", 14),
    ("AGCAGACGAGGAUAUAAACGAUAUAACAUGAGGAUCACCCAUGUACGAUCGAUAGAUCGUUUAGAAGGCGUCUGCU [E5/9-A1] (Eterna round: R97, puzzle: Exclusion 5)", 13.1),
    ("CUAAUGAUAGGAUAUACAGCGAGAGUCGACUCUGGUGCUCAACAUGAGGAUCACCCAUGUAGAAGGAUCAGACC [EX2 C.23] (Eterna round: R97, puzzle: Exclusion 2)", 18.6),
    ("AAAAAAUUGAGAGGAUAUGGUGCCGAAACGGUGCUAGAAGGUUUUAUAAAAAAACAUGAGGAUCACCCAUGUUCAUGUAAAAAA [AK ExNG1-1] (Eterna round: R96, puzzle: Exclusion NG 1)", 18),
    ("UAUUAGCAAGCGAGAUCCCACAUGAGGAUCACCCAUGUGCUCGUCUUAUAAAAGACUGUGACGAUAGUCACGGUCAC [Mat - Sensor, turn-off var - Eli Mod - D22] (Eterna round: R97, puzzle: Sensor, turn-off variant 1)", 13.1),
    ("CUGUGCACGCUGCGGUCCUACAUGAGGAUCACCCAUGUGGUCUGGUGGCGUGGGUCACCGGACUUGGCUCGUCUUGC [salish99_S_TOV1_R5_062] (Eterna round: R97, puzzle: Sensor, turn-off variant 1)", 22.5),
    ("GCCGGCUGAGGAUAUACAUGAGGAUCACCCAUGUGCUUCAGCCGGGAGACCGGCAUUGGUAGAAGGCAGCCGGC [Mod of lroppy 21 - Jieux - Exclusion 3] (Eterna round: R97, puzzle: Exclusion 3)", 14.7),
    ("AAGUCGACGGUGAGGAUAUUAGUUGAACGACAGAUUAAGAAGGUACAUGAGGAUCACCCAUGUGGGUAACGUUG [Brourd's EX4 #77] (Eterna round: R97, puzzle: Brourd's mod of Exclusion 4)", 107),
]

Shift focus to the following entry.
Data request, read-out apparent KD of MS2 coat protein, for AACAGUAGAGGAUAUACAUGAGGAUCACCCAUGUGAUAUUUACGUGGCGUACCACGAAGUAGAAGGCUACUGGA [JL Maslow Revisted mod 14] (Eterna round: R96, puzzle: Exclusion 3)
34.9

* * *

apparent KD of MS2 coat protein by entry:
test system: MS2 coat protein; assay: apparent KD of MS2 coat protein; designed switch direction (-1 OFF switch, 1 ON switch): -1; higher = weaker reporter binding; conditions: input ligand: none
Number in nM, nothing else.

Use these answered entries as a reference point.
# sequence code, target entity, unit spec, apparent KD of MS2 coat protein
measured = [
    ("CCAAGCUUCUUCAUUAUCCACAUGAGGAUCACCCAUGUCUUGGCAAUUAUGACCUGCCCGUCAGGAGCUCGUCUUAU [Sensor-V1 #38] (Eterna round: R97, puzzle: Sensor, turn-off variant 1)", "MS2 coat protein", "nM", 951),
    ("ACAUGAGGAUCACCCAUGUCCGGCUGGUCUGUCUCGGCUGUCGAGGAUAUAGCUCGGUAUCCGCGCUAGAAGGCGGGAGCCGGU [Aenatbe mod 91] (Eterna round: R96, puzzle: Exclusion NG 3)", "MS2 coat protein", "nM", 48.8),
    ("UAAUGUAUAUAGGAUAUCUAGCUGGUAACAGCUAGAGAAGGAUGUACAUGAGGAUCACCCAUGUAAAUCAGUGA [Ex6/14-B2] (Eterna round: R97, puzzle: Exclusion 6)", "MS2 coat protein", "nM", 41.6),
    ("CGUAUGUAAGGAUAUUAGUAGUAGUCAGAAUAGACUAUUACUGAGAAGGUACAUGAGGAUCACCCAUGUUAGCG [Eli x4 4.15] (Eterna round: R97, puzzle: Exclusion 4)", "MS2 coat protein", "nM", 31.6),
    ("GGUGGCUACGUGAGACAUGAGGAUCACCCAUGUUACCGAACGAAGGAUAUAGAAGCACAUAGCUACUAGAAGGUUGAAAAGAAA [Laeratveti] (Eterna round: R96, puzzle: Exclusion NG 3)", "MS2 coat protein", "nM", 29.9),
]

Data request, read-out apparent KD of MS2 coat protein, for GUUAUUUAUGUAGGAUAUGCAAGGCGAACCUAAGCAGAAGGACAUGAGGAUCACCCAUGUAUUGCGGUCUGCGUUCAGAUCGCU [salish99_ExNG1_r4_013] (Eterna round: R96, puzzle: Exclusion NG 1)
22

Data request, read-out apparent KD of MS2 coat protein, for UGGGUCCAAGGAUAUACAUGAGGAUCACCCAUGUGAGAUUCGAUGCUGUGCCAAUUGUGUAGAAGGUGGCCACC [Eternabot (L2) Solution 32] (Eterna round: R97, puzzle: Exclusion 3)
44.1

Data request, read-out apparent KD of MS2 coat protein, for ACGAUGACCGAAAAGUGUCAACUGACAUGAGGAUCACCCAUGUAGGAUAUGGCUACGAAAAGUAGUCAGAAGGACAAGUCAUCA [Omei Exc(NG) 3 Av5] (Eterna round: R96, puzzle: Exclusion NG 3)
14

Data request, read-out apparent KD of MS2 coat protein, for GUUCAGUCAGGAUAUCAAUCCGCCUGUGAUACGCAGGCGGCUGAGAAGGGACAUGAGGAUCACCCAUGUAAAGA [jl-ex4-4.21 ViennaUCT mod] (Eterna round: R97, puzzle: Exclusion 4)
37.1
